# assay_explanation: Selectivity index, ratio of EC50 for human MCF10A cells under UV irradiation at 1.5 J/cm2 to EC50 for human MCF7 cells under UV irradiation at 1.5 J/cm2
# Type: toxicity
# condition_parameters: MCF10A cells versus MCF7 cells, read-out: Ratio EC50
measurement_name: selectivity ratio
Reply with the value as a number alone.

query: // returns reported selectivity ratio for input COc1ccc(-c2ccc3c(C)nc4c(nnn4-c4ccccc4)c3n2)cc1
result: 0.003

query: Report selectivity ratio for COc1cc(-c2nc3c(nc(C)c4ccc(-c5ccccc5)nc43)o2)cc(OC)c1OC please.
result: 0.737

query: Find the recorded selectivity ratio belonging to COc1ccccc1-c1ccc2c(C)nc3oc(-c4cc(OC)c(OC)c(OC)c4)nc3c2n1 and report it.
result: 0.527

query: What selectivity ratio value was documented for this molecule, COc1ccccc1-c1ccc2c(C)nc3oc(-c4ccccc4)nc3c2n1 ?
result: 0.884

Continuing:
query: Field request: selectivity ratio | item: COc1ccc(-c2nc3c(nc(C)c4ccc(-c5ccccc5)nc43)o2)cc1
result: 86
